Overview of recorded pest or weed control at 25 ppm for various compounds
- System: Mycosphaerella graminicola; Anamorph: Septoria tritici; Bayer Code SEPTTR
- ASSAY_PROTOCOL: Leaf blotch of wheat, foliar fungicide treatment, one day protectant (1DP) or three day curative (3DC)
- Format: in vivo, Septoria tritici on wheat plants (variety Yuma)
- COND: Zymoseptoria tritici, 24 h, one day protectant (1DP), 25 ppm, rating of percent disease control, read-out: SETTTR 1DP 25 ppm

Solved cases (2 shown):
COMPOUND	MEASURED_PARAMETER	ASSAY_RESULT
COc1cccc(COc2ncc(F)c(-n3ccnc3)n2)c1	pest or weed control at 25 ppm	76 to 100%
COc1cc(COc2ncc(F)c(N)n2)c(OC)cc1C	pest or weed control at 25 ppm	76 to 100%

// recorded pest or weed control at 25 ppm for `CN(C)/C=N/c1nc(OC(=O)C2CC2)ncc1F` : 76 to 100%

The reported value for `O=C(Nc1ccccc1)Nc1nc(OCc2cccc(F)c2)ncc1F` in terms of pest or weed control at 25 ppm is 76 to 100%

Recorded pest or weed control at 25 ppm (compound `Nc1nc(OCc2ccccc2I)ncc1F` ): 51 to 75%

The compound identified as `CC(C)NC(=O)Nc1nc(OCc2cccc(C#N)c2)ncc1F` registered its pest or weed control at 25 ppm at 0 to 25%

The reported value for `Nc1nc(OC(=O)c2ccccc2)ncc1F` in terms of pest or weed control at 25 ppm is 76 to 100%

The reported value for `O=[N+]([O-])c1ccccc1SNc1nc(OCc2c(F)cc(Br)cc2F)ncc1F` in terms of pest or weed control at 25 ppm is 76 to 100%

The reported value for `COC(=O)Oc1ncc(F)c(/N=C/N(C)C)n1` in terms of pest or weed control at 25 ppm is 76 to 100%

The recorded pest or weed control at 25 ppm for `Cc1ccc(COc2ncc(F)c(N)n2)c(C)c1` is 76 to 100%

pest or weed control at 25 ppm recorded for this compound, `Fc1cnc(OCc2ccccc2)nc1N/N=C/c1ccco1` , is 26 to 50%

Note to self: pest or weed control at 25 ppm recorded for `COc1ccccc1Oc1ncc(F)c(N)n1` was 76 to 100%

The compound identified as `Nc1nc(OCc2ccc3ccccc3n2)ncc1F` registered its pest or weed control at 25 ppm at 76 to 100%

Please fill in: pest or weed control at 25 ppm reported for `O=C(Nc1cccs1)Nc1nc(OCc2ccc(F)cc2)ncc1F` = 0 to 25%
